# reported AC50; entries follow
system: Clone20 osteoblast Shn3 3'UTR firefly luciferase, 24 h; assay: Shn3 3'UTR reporter inhibitors, dose response, cell-based, Clone20 osteoblasts, luminescence, dry powder, set 2 (AID 743417)
Inconclusive results are not listed.

| compound | target entity | AC50 |
| --- | --- | --- |
| NS(=O)(=O)c1ccc(CCNCc2cc(Br)ccc2OCc2ccccc2F)cc1 | Clone20 osteoblast Shn3 3'UTR firefly luciferase, 24 h | 4650 nM |
| COc1ccccc1C(NC(C)=O)c1cc(Cl)c2cccnc2c1O (stereo not given) | Clone20 osteoblast Shn3 3'UTR firefly luciferase, 24 h | 2560 nM |
| COc1ccc(Nc2nc(N3CCCCC3)c3ccccc3n2)cc1 | Clone20 osteoblast Shn3 3'UTR firefly luciferase, 24 h | 2110 nM |
| CCN1C(=O)C(=Cc2cccc(OC)c2Oc2ccc([N+](=O)[O-])cc2[N+](=O)[O-])SC1=S | Clone20 osteoblast Shn3 3'UTR firefly luciferase, 24 h | 1890 nM |
| c1ccc(CN=C(NCc2ccccc2)NCc2ccccc2)cc1 | Clone20 osteoblast Shn3 3'UTR firefly luciferase, 24 h | 1790 nM |

====

tested on: Clone20 osteoblast Shn3 3'UTR firefly luciferase, 24 h; assay: Shn3 3'UTR reporter inhibitors, dose response, cell-based, Clone20 osteoblasts, luminescence, dry powder, set 2 (AID 743417)
Inconclusive results are not listed.
# reported AC50; entries follow

| compound | AC50 |
| --- | --- |
| CCN(CC)S(=O)(=O)c1cccc(NC(=O)CNc2cccc(S(=O)(=O)N3CCOCC3)c2)c1 | 865 nM |
| O=C(c1cc2nc(-c3ccc(F)cc3)cc(C(F)(F)F)n2n1)N1CCCCC1c1cccnc1 (stereo not given) | 2370 nM |
| COCOCCn1cc(CN2CCS(=O)(=O)N(Cc3ccc(-c4ccc(Cl)c(Cl)c4)cc3)C(C(C)C)C2=O)nn1 (stereo not given) | 1350 nM |
| CCCC(=O)NC(c1ccccc1)c1ccc2cccnc2c1O (stereo not given) | 1990 nM |
| CCCOC(=O)c1[nH]c2c(c1C)C(=O)CC(c1cc(OC)c(OC)c(OC)c1)C2 (stereo not given) | 1920 nM |

====

test system: Clone20 osteoblast Shn3 3'UTR firefly luciferase, 24 h; test: Shn3 3'UTR reporter inhibitors, dose response, cell-based, Clone20 osteoblasts, luminescence, dry powder, set 2 (AID 743417)
Results filed as inconclusive are left out.
# reported AC50; entries follow
observed property: AC50

| molecule | observed property | recorded result |
| --- | --- | --- |
| COc1ccccc1N1CCN(C(=O)C2CCCN(S(=O)(=O)c3ccc4c(c3)CCCN4C(C)=O)C2)CC1 (configuration not stated) | AC50 | 2.68 µM |
| Cc1ccn2cc(-c3ccc(O)c(O)c3)nc2c1 | AC50 | 2.44 µM |
| O=C(Nc1ccc(Cl)c(Cl)c1)c1cccc(S(=O)(=O)NCc2cccnc2)c1 | AC50 | 5.39 µM |
| COc1cccc(-n2c(C)nc3c(cnn3-c3ccc(Cl)cc3)c2=O)c1 | AC50 | 0.391 µM |
| CC1=NOC(=O)/C1=C\c1ccc(-c2ccccc2Br)o1 | AC50 | 6.48 µM |
| COCc1c(C(=O)Nc2cccc(S(=O)(=O)N3CCCCC3)c2)oc2ccccc12 | AC50 | 9.63 µM |
| COc1ccc(CNCCc2c(C)[nH]c3ccc(OC(F)(F)F)cc23)c(OC)c1 | AC50 | 0.963 µM |
| CC(=O)c1cn(Cc2ccccc2C#N)c2ccccc12 | AC50 | 0.527 µM |
| Nc1ncnc2c1c(-c1ccc(Oc3ccccc3)cc1)cn2C1CCCC1 | AC50 | 0.658 µM |
| CCN(CC)CCn1c(=N)n(CC(O)COc2cccc(C)c2)c2ccccc21 (configuration not stated) | AC50 | 4.39 µM |
| CC1Cc2ccccc2N1Cc1cccc(S(=O)(=O)N(C)C)c1 (configuration not stated) | AC50 | 33 µM |
| Cc1cc(O)c(C(C)C)cc1C1(c2cc(C(C)C)c(O)cc2C)OC(=O)c2ccccc21 | AC50 | 9.45 µM |
| COc1cccc(C(NC(C)=O)c2ccc3cccnc3c2O)c1 (configuration not stated) | AC50 | 1.39 µM |
| Cn1nc(C(C)(C)C)cc1C(=O)N1CCCCC1c1cc(C(=O)Nc2ccc(F)c(Cl)c2)no1 (configuration not stated) | AC50 | 3.04 µM |
| Cc1ccc(C(=O)N2c3ccccc3N(Cc3ccccc3)C(=O)C2(C)C)cc1 | AC50 | 6.92 µM |
| COc1ccccc1CNc1nc(NCc2ccccc2SC)c2sccc2n1 | AC50 | 4.48 µM |
| CCC(=O)NC(C)c1cc(Cl)c2cccnc2c1O (configuration not stated) | AC50 | 5.19 µM |
| Oc1ccc(-c2n[nH]c(C(F)(F)F)c2-c2ccccc2)c(O)c1 | AC50 | 0.283 µM |
| CCCCCCCCOC(=O)c1cc([N+](=O)[O-])c(Sc2ncnc3nc[nH]c23)c([N+](=O)[O-])c1 | AC50 | 2.81 µM |
| Oc1ccc(CN2CCc3ccccc3C2)c2cccnc12 | AC50 | 0.673 µM |
| CCOc1cc(CNCCCN2CCOCC2)cc(Br)c1OCc1ccccc1Cl | AC50 | 9.31 µM |
| CN(CCOc1ccc(Cl)cc1)C(=O)c1cccc(S(=O)(=O)N2CCN(Cc3ccccc3)CC2)c1 | AC50 | 2.29 µM |
